System: Calu-6 (lung, adenocarcinoma; MTAP-WT)
Protocol Description: In vitro cell viability assay (CellTiter-Glo, 9 days), Calu-6
Type: cell-based
Particulars: Homo sapiens, Calu-6, 216 h, 9-day treatment
Procedure: Some Compounds of the Disclosure were tested in Calu-6 (Vendor: ATCC; Cat #HTB-56; Description: lung, adenocarcinoma), LU99 (Vendor: JCRB; Cat #JCRB0080; Description: lung, giant cell carcinoma), SW780 (Vendor: ATCC; Cat #CRL-2169; Description: bladder, urothelial carcinoma), and BxPC-3 (Vendor: ATCC; Cat #CRL-1687; Description: pancreas, adenocarcinoma) cellular viability assays according to the general protocol. […] Recorded luminescence with Perkin Elmer Envision 2105 machine. […]
Measured Attribute: GI50 (µM)

{"Molecule": "Cc1ncc2c(N)nc3cnc(C(=O)N4CCC[C@@H]5Oc6cc(OC(F)(F)F)ccc6[C@@H]54)cc3n12 [Ff-340]", "Number": 2.95}
{"Molecule": "C[C@@H]1CN(C(=O)c2cc3c(cc2F)nc(N)c2cncn23)[C@H]2c3ccc(OC(F)(F)F)cc3C[C@H]2O1 (single isomer, unassigned) [Ff-183]", "Number": 2.15}
